Attribution: PubChem BioAssay (NCATS)

Assay: Confirmatory qHTS to identify inhibitors of SARS-CoV-2 cell entry (AID 1645844); also: nearly all actives have a fitted effect of over 45% in size; also: potency is read from the fitted curve at half-maximal effect
Conditions: SARS-CoV-2 pseudotyped particle cell entry, luciferase; series mostly up to 57.2 µM
Results filed as inconclusive are left out. The source made the active and inactive calls. Calls follow the shape of the full dose curve. Square brackets hold non-standard residues; d marks the D form. Peptide text beside a SMILES is read from it. ξ: configuration not given here. d(hArg(Et2)) = CCN=C(NCC)NCCCC[C@@H](N)C(=O)O; hArg(Et2) = CCN=C(NCC)NCCCC[C@H](N)C(=O)O; Phe(4-Cl) = N[C@@H](Cc1ccc(Cl)cc1)C(=O)O; ξ2Nal = NC(Cc1ccc2ccccc2c1)C(=O)O; 3Pal = N[C@@H](Cc1cccnc1)C(=O)O; ξP = O=C(O)C1CCCN1
readout.type: Potency

Completed entries (count: 8):
[[record]]
molecule = "C[C@H]1[C@H](O)[C@@H](C)/C=C/C=C/CC/C=C/C=C/C=C/C=C/[C@H](O[C@@H]2O[C@H](C)[C@@H](O)[C@H](N)[C@@H]2O)C[C@@H]2O[C@](O)(C[C@@H](O)[C@H](O)CC[C@@H](O)C[C@@H](O)C[C@@H](O)CC(=O)O[C@H]1C)C[C@H](O)[C@H]2C(=O)O"
measurement = "9610 nM (active)"

[[record]]
molecule = "CCc1nc(C(N)=O)c(Nc2ccc(N3CCC(N4CCN(C)CC4)CC3)c(OC)c2)nc1NC1CCOCC1"
measurement = "3410 nM (active)"

[[record]]
molecule = "CC[C@H](NC(=O)[C@H](CS(=O)(=O)CC1CC1)N[C@@H](c1ccc(F)cc1)C(F)(F)F)C(=O)C(=O)NC1CC1"
measurement = "1080 nM (active)"

[[record]]
molecule = "c1cc(Nc2cc(C3CC3)[nH]n2)nc(Nc2ccc3nc[nH]c3c2)n1"
measurement = "192 nM (active)"

[[record]]
molecule = "CC(=O)N1CCN(CCOc2ccc(C3CCN(C4=Nn5c(nnc5C(F)(F)F)CC4)CC3)cc2)CC1"
measurement = "19200 nM (active)"

[[record]]
molecule = "CCc1cc(C(N)=O)ccc1-n1nc(C(C)C)c2c(-n3cnc(-c4cnn(C)c4)c3)ccnc21"
measurement = "10800 nM (active)"

[[record]]
molecule = "O=C(Nc1cccnc1)c1cc(-c2ccnc(F)c2)ccc1OCc1ccccc1"
measurement = "inactive"

[[record]]
molecule = "CS[C@H]1SC[C@@H]2C(=O)N(C)[C@H](C(C)C)C(=O)OC[C@H](NC(=O)c3cnc4ccccc4n3)C(=O)N[C@H](C)C(=O)N(C)[C@H]1C(=O)N(C)[C@H](C(C)C)C(=O)OC[C@H](NC(=O)c1cnc3ccccc3n1)C(=O)N[C@H](C)C(=O)N2C"
measurement = "8.6 nM (active)"


Report Potency for CCNC(=NCCCC[C@H](NC(=O)[C@H](CC(C)C)NC(=O)[C@@H](CCCCN=C(NCC)NCC)NC(=O)[C@@H](Cc1ccc(O)cc1)NC(=O)[C@@H](CO)NC(=O)[C@H](Cc1cccnc1)NC(=O)[C@H](Cc1ccc(Cl)cc1)NC(=O)C(Cc1ccc2ccccc2c1)NC(C)=O)C(=O)N1CCCC1C(=O)N[C@H](C)C(N)=O)NCC (stereo partly specified) (Ac-[ξ2Nal][Phe(4-Cl)][3Pal][dS][dY][d(hArg(Et2))]L[hArg(Et2)][ξP][dA]-NH2) 1210 nM (active)

Report Potency for `Cc1cc(/C=c2/sc3nc4ccccc4n3c2=O)c(C)n1-c1ccccc1` 34.1 nM (active)

Report Potency for `CC[C@]12C=CCN3CC[C@@]4(c5cc([C@@]6(C(=O)OC)C[C@H]7C[C@@H](C(C)(F)F)CN(Cc8c6[nH]c6ccccc86)C7)c(OC)cc5N(C)[C@H]4[C@@](O)(C(=O)OC)[C@@H]1OC(C)=O)[C@@H]32` 359 nM (active)

---

Assay: Cell Viability - LYMP1-003 - Assay at 40 hr (AID 964); also: nearly all actives have a fitted effect of over 60% in size
Conditions: LYMP1-003 lymphoblastoid viability; series mostly up to 92.2 µM
Records with an inconclusive call do not appear. The source made the active and inactive calls. The call rests on the fitted dose curve; in most records, active means well fitted cell-killing curve with a large enough effect; inconclusive means small, poorly fitted or top-dose-only effect; inactive means flat fitted curve, though single readings scatter.
API: response.call in yes (1) for active, no (0) for inactive

Worked set:
[[record]]
compound = "COc1ccc(C=O)cc1OC"
assigned_category = "no (0)"

[[record]]
compound = "Clc1nc(Cl)nc(Cl)n1"
assigned_category = "no (0)"

[[record]]
compound = "ClC(Cl)=C(Cl)Cl"
assigned_category = "no (0)"

[[record]]
compound = "C[C@]12CC[C@H]3[C@@H](CCC4=CC(=O)CC[C@@]43C)[C@@H]1CC[C@@H]2O"
assigned_category = "no (0)"


Assay result, entry `O=NN(CCO)CCO` — outcome? no (0)

Assay result, entry `C=C(Cl)Cl` — outcome? no (0)

Assay result, entry `Cc1cccc([N+](=O)[O-])c1` — outcome? no (0)

Assay result, entry `CC(C)(C)OO` — outcome? no (0)

Assay result, entry `C=CC(C)=O` — outcome? no (0)

Assay result, entry `Oc1ccc(Cl)cc1Cl` — outcome? no (0)

Assay result, entry `CCCSC(=O)Cl` — outcome? no (0)

Assay result, entry `Nc1c(Cl)c(Cl)nc(C(=O)O)c1Cl` — outcome? no (0)

---

Molecular target: Cytochrome P450 1A2 (Homo sapiens)
Assay: p450-cyp1a2 (AID 410)
Details: recombinant CYP1A2, luciferin-ME demethylation, luminescence; series mostly up to 25.6 µM
Results filed as inconclusive are left out. The source made the active and inactive calls. The call rests on the fitted dose curve.
API: response.call in YES for active, NO for inactive

Worked set:
[[record]]
structure_smiles = "CC(C)(C)NC[C@H](O)c1cc(Cl)c(N)c(Cl)c1"
assigned_category = "NO"

[[record]]
structure_smiles = "CCN1C[C@@]2(COC)CC[C@H](OC)[C@]34[C@@H]1[C@]1(OCO[C@@]15C[C@@H](OC)C1C[C@H]3[C@H]5[C@@H]1OC)[C@H](O)[C@@H]24"
assigned_category = "NO"

[[record]]
structure_smiles = "COC(=O)N1CCC2(CCCN(C)C2)CC1"
assigned_category = "NO"

[[record]]
structure_smiles = "c1ccc(CN2CCC3(CCNCC3)CC2)cc1"
assigned_category = "NO"

[[record]]
structure_smiles = "CC(C)NC(=O)N1CC[C@@]2(CCCNC2)C1"
assigned_category = "NO"


Assay result, entry `COc1ccc2c(c1OC)CN1CCc3cc4c(cc3[C@H]1C2)OCO4` — outcome? YES

---

Target: Rap guanine nucleotide exchange factor 3 (Homo sapiens)
Test: Counterscreen qHTS for agonist of cAMP-regulated guanine nucleotide exchange factor 3 (EPAC1) (AID 1645889); also: potency is read from the fitted curve at half-maximal effect; nearly all actives have a fitted effect of over 40% in size
Conditions: EPAC1 Rap1B-BODIPY-GDP exchange, fluorescence; series mostly up to 154 µM
Records with an inconclusive call do not appear. Calls of active or inactive are those of the source. The call rests on the fitted dose curve; in most records, active means well fitted activation curve with a large enough effect; inconclusive means small, poorly fitted or top-dose-only effect, or another doubt; inactive means no such curve, though single readings can be large or run the other way.
readout.type: Potency

[[record]]
structure_smiles = "COc1ccc(-n2c(O)c(/C=C/C=Nc3ccccc3)c(=O)[nH]c2=O)cc1"
measurement = "35.5 µM (active)"

[[record]]
structure_smiles = "Nc1ccc2ccc3cccc[n+]3c2c1"
measurement = "39.8 µM (active)"

[[record]]
structure_smiles = "O=Cc1c(C(=O)O)n(Cc2ccc(Cl)cc2)c2ccccc12"
measurement = "15.8 µM (active)"


Report Potency for `O=c1cc(C(F)(F)F)c2cc3c4c(c2o1)CCCN4CCC3` 50.1 µM (active)

Report Potency for `Nc1ccc2nonc2c1[N+](=O)[O-]` 63.1 µM (active)

Report Potency for `Cc1cc(C=C(C#N)C#N)ccc1N1CCCC1` 28.2 µM (active)

Report Potency for `Cc1ccc(-n2c(O)c(/C=C/C=Nc3ccccc3)c(=O)[nH]c2=O)cc1` 44.7 µM (active)

Report Potency for `O=[N+]([O-])c1ccc(N2CCCCCC2)c2nonc12` 25.1 µM (active)

Report Potency for `CCN1/C(=C/C=C/C2=[N+](CC)c3ccccc3C2(C)C)C(C)(C)c2ccccc21` 10 µM (active)

---

System: CP325
Test: qHTS profiling for inhibitors of Plasmodium falciparum proliferation (AID 504749);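 also: 0% = DMSO vehicle and full inhibition = artemisinin control; nearly all actives have a fitted effect of over 60% in size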
Conditions: P. falciparum in erythrocytes, SYBR Green DNA, 72 h; series mostly up to 28.7 µM
Results filed as inconclusive are left out. Active and inactive are the calls of the source. The call rests on the fitted dose curve; in most records, active means well fitted inhibition curve with a large enough effect; inconclusive means small, poorly fitted or top-dose-only effect; inactive means flat fitted curve, though single readings scatter.
readout.type: outcome

[[record]]
compound = "CN[C@@H](C)[C@H]1CC[C@@H](N)[C@@H](O[C@@H]2[C@@H](O)[C@@H](O[C@H]3OC[C@@](C)(O)[C@@H](NC)[C@@H]3O)[C@H](N)C[C@@H]2N)O1 (tested in a mixture with another compound)"
measurement = "inactive"

[[record]]
compound = "CC(=O)OCC(=O)[C@@H]1CC[C@H]2[C@H]3CC[C@H]4C[C@@H](O)CC[C@]4(C)[C@@H]3C(=O)C[C@@]12C"
measurement = "inactive"

[[record]]
compound = "C[C@H]1CN(C2CCC(C#N)(c3ccc(F)cc3)CC2)CC[C@@]1(C(=O)O)c1ccccc1 (stereo partly drawn)"
measurement = "inactive"

